system: CCRF-CEM leukemia; experiment: NCI tumour cell line growth inhibition, 48 h
Parameter TGI: see the listing below.

Molecule | Target Under Test | TGI
Nc1nc(N)c2ncn(CCCC(c3ccccc3)P(=O)(O)O)c2n1 (stereo not drawn) | CCRF-CEM leukemia | > 100 µM
CN(C)CCONC(=O)C12CC3CC(CC(C3)C1)C2 | CCRF-CEM leukemia | > 100 µM
C[CH2][Pb]([CH2]C)([CH2]C)[O]C(=O)COC | CCRF-CEM leukemia | 6.84 µM
C=C=C(Sc1ccccc1)C(C)(C)O | CCRF-CEM leukemia | > 100 µM
Nc1c(C(=O)c2cccc(OC[C@@H](O)CO)c2)cnn1-c1ccc(F)cc1 | CCRF-CEM leukemia | > 25 µM
CN(CCCNC(=O)c1nn(-c2ccccc2)c2c1ccc1ccccc12)CCCNC(=O)c1nn(-c2ccccc2)c2c1ccc1ccccc12 | CCRF-CEM leukemia | 0.628 µM
O=C1Nc2c(Cl)cc(Cl)cc2C1=O | CCRF-CEM leukemia | 72.9 µM
CCOC(=O)N1CCN(P(=O)(Nc2ccc3nc(NC(=O)OC)[nH]c3c2)Oc2ccccc2)CC1 (stereo not drawn) | CCRF-CEM leukemia | > 100 µM
CC1=CC2C(=O)N(c3ccccc3)C(=O)C2CC1n1[nH]c(=O)n(Cc2ccccc2)c1=O (stereo not drawn) | CCRF-CEM leukemia | > 100 µM
CC1OC(n2cc(Cl)c(=O)[nH]c2=O)C=C(OC(=O)c2ccccc2)C1=O (stereo not drawn) | CCRF-CEM leukemia | > 100 µM
CC(CCOc1ccc2ccc(=O)oc2c1)C1=CC(=O)C(C)(C)O1 (stereo not drawn) | CCRF-CEM leukemia | 3.18 µM
COc1cc(C2CC(c3cccc(Nc4ccncc4)c3)=NN2c2ccccc2)cc(OC)c1OC (stereo not drawn) | CCRF-CEM leukemia | 8.53 µM
c1ccc2nc(N/N=C3\CCCCC3C3CCCCC3)ccc2c1 (stereo not drawn) | CCRF-CEM leukemia | 14 µM
O=c1ncc(I)cn1C1CC(O)C(CO)O1 (stereo not drawn) | CCRF-CEM leukemia | > 3250 µM
C=C(C)c1cc(C(C)(C)C)cc(C(=C)C)c1S(C)(=O)=O | CCRF-CEM leukemia | > 100 µM
CC(=O)OCC(OC(C)=O)C(OC(C)=O)C(OC(C)=O)C(=O)CNn1c(-c2ccc(C)cc2)nc2ccccc2c1=O (stereo not drawn) | CCRF-CEM leukemia | > 100 µM
O=S(=O)(c1ccccc1)n1c(C(O)c2ccccc2)cc2ccccc21 (stereo not drawn) | CCRF-CEM leukemia | 28.9 µM
COc1ccc(C(=S)N(C)NC(=O)CC(=O)NN(C)C(=S)c2ccc(OC)cc2)cc1 | CCRF-CEM leukemia | > 100 µM
Cc1cc(Cl)ccc1OCc1nn2c(CCCCc3nnc4sc(COc5ccc(Cl)cc5C)nn34)nnc2s1 | CCRF-CEM leukemia | > 61.6 µM
CCC12C=CCN3CCC4(c5cc(C6(C(=O)OC)CCCCCc7c6[nH]c6ccccc76)c(OC)cc5N(C)C4C(O)(C(=O)OC)C1OC(C)=O)C32 (stereo not drawn) | CCRF-CEM leukemia | 5.49 µM
Clc1ccc(Cn2c(CN3CCCC3)nc3ccccc32)cc1 | CCRF-CEM leukemia | > 100 µM
CCN=c1nc2sc3c(c2c(NC(=S)NCC)s1)CCN(N1CCc2c(sc4nc(=NCC)sc(NC(=S)NCC)c24)C1)C3 | CCRF-CEM leukemia | > 100 µM
Cn1cc(-c2csc(-c3c[nH]c4ccccc34)n2)c2cnccc21 | CCRF-CEM leukemia | 6.42 µM

====

tested on: CAKI-1 renal; experiment: NCI tumour cell line growth inhibition, 48 h
TGI by entry:

Smiles Data | Target Under Test | Limit Sign | TGI / µM
COc1cc2c3c(n(CCCNC4=NCCS4)c(=O)c2cc1OC)-c1cc2c(cc1C3=O)OCO2 | CAKI-1 renal | = | 0.749
CCCCCCCCCCCC[C@@H](O)[C@H]1CC[C@H]([C@H]2CC[C@H]([C@H](O)CC[C@H](O)CCCCCCCC3=C[C@H](C)OC3=O)O2)O1 | CAKI-1 renal | = | 6.81
Cn1c(-c2ccncc2)c(-c2ccc(F)cc2)c2ncccc21 | CAKI-1 renal | > | 25
COc1cc(S(=O)(=O)Nc2nc(-c3ccc(N4C(=O)/C(=C\c5cccs5)N=C4c4ccccc4)cc3)cs2)ccc1Cl | CAKI-1 renal | > | 100

====

List of GI50 values.
test system: OVCAR-3 ovarian; experiment: NCI tumour cell line growth inhibition, 48 h
Outcome Measure: GI50

Molecule | Outcome Measure | Value Observed
O=C(OCC1OC(n2cc(C(F)(F)F)c(=O)[nH]c2=O)CC1OC(=O)c1ccc([N+](=O)[O-])cc1)c1ccc([N+](=O)[O-])cc1 (stereo not given) | GI50 | 23.8 µM
C=C1C(O)C2C(=C(CCC3CC3)C13CC3)C(=O)C(C)(C)C2O (stereo not given) | GI50 | 59.5 µM
Clc1ccc(Cn2c(CN3CCCC3)nc3ccccc32)cc1 | GI50 | 18.4 µM
C[CH2][Pb]([CH2]C)([CH2]C)[O]C(=O)COC | GI50 | 0.441 µM
c1ccc2nc(N/N=C3\CCCCC3C3CCCCC3)ccc2c1 (stereo not given) | GI50 | 13.9 µM
COC(=O)/C=C1/SC(=Nc2ccc(F)cc2)N(CCc2c[nH]c3ccc(O)cc23)C1=O | GI50 | 4.41 µM
COc1ccc(C2C=C(c3ccc(OC)c(OC)c3)N=C3SC=CN32)c(Br)c1 (stereo not given) | GI50 | 2.24 µM
Cc1oc2c(C(=O)N/N=C\c3ccc(O)cc3O)c[nH]c2c1C | GI50 | 0.368 µM
Cc1cc(=O)n2nnc3c4ccccc4ccc3n12 | GI50 | 1.79 µM
O=C1C=CC2(O)OC/C(=C\c3ccccc3)C(O)=C2C1=O (stereo not given) | GI50 | 1.14 µM

====

test system: NCI-H460 lung; assay: NCI tumour cell line growth inhibition, 48 h
Where a SMILES comes first, the peptide text is derived from it.
Known TGI of a selection of molecules

Molecule | TGI
Nc1ccccc1Nc1ccccc1C(=O)[O-].Nc1ccccc1Nc1ccccc1C(=O)[O-].[Ni+2] | > 100 µM
CC(=O)Nc1ccc(-c2nnc(SCC(=O)Nc3ccc(Cl)cc3Cl)o2)cc1 | > 100 µM
O=C(NC(O)(C(F)(F)F)C(F)(F)F)c1ccccc1 | > 100 µM
CCN(CC)CCN1C(=O)CC2[C@@H]3CCc4cc(OC)ccc4C3CC[C@]2(C)C1=O (stereo partly drawn) | > 100 µM
c1ccc2c(c1)Oc1cccc3cccc-2c13 | > 100 µM
C=C(C)c1cc(C(C)(C)C)cc(C(=C)C)c1S(C)(=O)=O | > 100 µM
CC(C)N(CCCNC(=O)Nc1ccc(C(C)(C)C)cc1)C[C@H]1O[C@@H](n2ccc3c(N)ncnc32)[C@H](O)[C@@H]1O | > 100 µM
O=S(=O)(O)c1cc(S(=O)(=O)O)c2c(Nc3ccnc4ccccc34)ccc(S(=O)(=O)O)c2c1 | > 100 µM
Cc1[nH]n(-c2ncc(C(=O)O)c(=O)[nH]2)c(=O)c1CCO | > 100 µM
Cc1ccccc1NC(=O)/C(=N/NC(=O)CC#N)C1C(=O)N(c2ccccc2)N=C1N (stereo not drawn) | > 100 µM
O=C(CN1CCN(c2cccc(Cl)c2)CC1)N1CCc2c([nH]c3ccccc23)C1c1cccnc1 (stereo not drawn) | 33.1 µM
CC(C)(C)OC(=O)NC(CSCc1ccc(C(=O)c2ccccc2)cc1)C(=O)O (stereo not drawn) | > 100 µM
Nc1nc(N)c2ncn(CCCC(c3ccccc3)P(=O)(O)O)c2n1 (stereo not drawn) | > 100 µM
CCC(C)C(NC(=O)C(NC(=O)C(CC(N)=O)NC(=O)CN)C(C)O)C(=O)NC(C(=O)NC(C)C(=O)NC(C(=O)NC(CCC(=O)O)C(=O)NC(CC(C)C)C(=O)NC(CC(=O)O)C(=O)NC(C(=O)NC(Cc1ccc(O)cc1)C(=O)N1CCCC1C(=O)O)C(C)O)C(C)C)C(C)C (stereo not drawn) (H-GNTIVAVELDTYP-OH; configuration not given here) | > 50 µM
N#CC(C#N)=Cc1c[nH]c(=O)[nH]c1=O | > 100 µM
O=C(NC(Cc1ccc(I)cc1)C(=O)O)c1cccc(Br)c1 (stereo not drawn) | > 100 µM
Cc1nc2cc(-c3nn(C(C)C)c4ncnc(N)c34)ccc2o1 | > 10 µM
CCCCNC(=O)c1cc(S(=O)(=O)n2cc[nH]c2=O)c(SC)cc1Cl | > 100 µM

====

Entries annotated with measured TGI
test system: SN12C renal; test: NCI tumour cell line growth inhibition, 48 h

Molecule | Target Under Test | TGI
CC1OC(O[C@H]2CC[C@]3(C)[C@H]4CC=C5[C@@H]6[C@@H](C)[C@H](C)CC[C@]6(C(=O)OC6OC(CO)C(O)C(O)C6O)CC[C@@]5(C(=O)O)[C@]4(C)CC[C@H]3C2(C)C)C(O)C(O)C1O (stereo not given in full) | SN12C renal | > 100 µM
O=[N+]([O-])c1nccn1COCCO | SN12C renal | > 100 µM
S=C(S)N1CCCCC1 | SN12C renal | > 406 µM
O=c1c2cc(I)ccc2nc(Sc2ccc([N+](=O)[O-])cc2[N+](=O)[O-])n1Cc1ccccc1 | SN12C renal | 2.95 µM
CC1(C)Oc2ccccc2OC1O (stereo not given) | SN12C renal | > 100 µM
Cc1[nH]n(-c2ncc(C(=O)O)c(=O)[nH]2)c(=O)c1CCO | SN12C renal | > 100 µM
O=C1/C=C/[C@@H](O)[C@@H]2C[C@@H](O)C[C@H]2/C=C/CCC[C@H](CCc2ccccc2)O1 | SN12C renal | 14.1 µM
CCCCCCN1CCc2c(C)c(C#N)c3nc4ccccc4n3c21 | SN12C renal | > 100 µM
N#CNCC(COCc1ccccc1)c1ccccc1 (stereo not given) | SN12C renal | > 100 µM
CCn1c2ccccc2c2cc(N=Nc3ccc(C#N)cc3)ccc21 | SN12C renal | > 100 µM
